# system: T1, Human ACVR2A (human, UniProt P27037 20-135, limits assumed); note: test concentration or dose not given here
# T1 construct: also called activin receptor, type II A
# T1 sequence (P27037 20-135 limits assumed): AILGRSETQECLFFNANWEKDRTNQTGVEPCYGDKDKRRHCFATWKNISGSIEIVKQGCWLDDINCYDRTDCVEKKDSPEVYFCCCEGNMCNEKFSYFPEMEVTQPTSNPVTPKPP
# protocol-notes: ELISA
measurement-kind: optical density (OD)
Your answer should be a plain number; it is taken to be in OD.

Solved entries (count: 4):
So what's the measured optical density for this one? 373_B04 (antibody, V domains shown) VH: EVQLLESGGGLVQPGGSLRLSCAASGFTFSSYGMNWVRQAPGKGLEWVAGINYNSGYKGYADSVKGRFTISRDNSKNTLYLQMNSLRAEDTAVYYCARSANWHDTALDYWGQGTLVTVSS VL: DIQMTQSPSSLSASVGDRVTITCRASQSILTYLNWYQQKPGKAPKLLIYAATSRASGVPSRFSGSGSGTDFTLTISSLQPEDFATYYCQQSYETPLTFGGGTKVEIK
3.6

Given 373_B10 (antibody, V domains shown) VH: EVQLLESGGGLVQPGGSLRLSCAASGFTFDSYGMNWVRQAPGKGLEWVSNINYNGGYTSYADSVKGRFTISRDNSKNTLYLQMNSLRAEDTAVYYCARSANWHDTALDYWGQGTLVTVSS VL: DIQMTQSPSSLSASVGDRVTITCRASQSILSYLNWYQQKPGKAPKLLIYAATSRASGVPSRFSGSGSGTDFTLTISSLQPEDFATYYCQQSYDLPLTFGGGTKVEIK , state its recorded optical density.
3.65

Item 368_G01 (antibody, V domains shown) VH: EVQLLESGGGLVQPGGSLRLSCAASGFTFSDYGMHWVRQAPGKGLEWVASINYNSGYTSYADSVKGRFTISRDNSKNTLYLQMNSLRAEDTAVYYCARSANWHDTALDYWGQGTLVTVSS VL: DIQMTQSPSSLSASVGDRVTITCRASQSILTYLNWYQQKPGKAPKLVIYAATSRASGVPSRFSGSGSGTDFTLTISSLQPEDFATYYCQQSYNLPLTFGGGTKVEIK has what recorded optical density?
2.65

optical density lookup needed for 369_D04 (antibody, V domains shown) VH: EVQLLESGGGLVQPGGSLRLSCAASGFTFDSYGMNWVRQAPGKGLEWVSGINYNGGYTSYADSVKGRFTISRDNSKNTLYLQMNSLRAEDTAVYYCARSANWHDTALDYWGQGTLVTVSS VL: DIQMTQSPSSLSASVGDRVTITCRASQSILSYVNWYQQKPGKAPKLVIYAATSRASGVPSRFSGSGSGTDFTLTISSLQPEDFATYYCQQSYNLPLTFGGGTKVEIK , thanks.
3.05

Moving on to another binder below.
// optical density lookup, key: 371_F04 (antibody, V domains shown) VH: EVQLLESGGGLVQPGGSLRLSCAASGFTFDSYSMNWVRQAPGKGLEWVAGINYNSGYKGYADSVKGRFTISRDNSKNTLYLQMNSLRAEDTAVYYCARSANWHDTALDYWGQGTLVTVSS VL: DIQMTQSPSSLSASVGDRVTITCRASQSILSYLNWYQQKPGKAPKLLIYAATSRHSGVPSRFSGSGSGTDFTLTISSLQPEDFATYYCQQSYNNPLTFGGGTKVEIK
2.95
